Attribute: Kd
Target: the molecule itself
Assay: AUC
Numeric only. Scale: µM

[[record]]
protein = "cadherin-9 EC1-EC2 adhesive fragment (mouse), wild-type (domain or fragment) GWMWNQFFLLEEYTGTDTQYVGKLHTDQDKGDGNLKYILTGDGAGNLFVIDENTGDIHAAKRLDREEKSLYILRAKAIDRKTGRQVEPESEFIIKIHDINDNEPKFTKDLYTASVPEMSGVGTSVIQVTATDADDANYGNSAKVVYSILQGQPYFSVDPESGIIKTALPDMSRENKEQYQVVIQAKDMGGQMGGLSGTTTVNITLTDVNNNPPRF"
measurement_name = "Kd"
numeric_readout = 17


[in] Would you mind telling me what Kd value was observed for cadherin-20 EC1-EC2 adhesive fragment (mouse), wild-type (domain or fragment) SWVWNQFFVLEEYTGTDPLYVGKLHSDMDRGDGSIKYILSGEGAGIVFTIDDTTGDIHAIQRLDREERAQYTLRAQALDRRTGRPMEPESEFIIKIQDINDNEPKFLDGPYIATVPEMSPVGTSVIQVTATDADDPTYGNSARVVYSILQGQPYFSVDSKTGVIRTALMNMDREAKEYYEVIIQAKDMGGQLGGLAGTTTVNITLSDVNDNPPRF ?
[out] 9.3
